# Tested on: RARg:RXRa (NR concentration 270 nM, RXRa partner concentration 90 nM)
# Assay method text: PBM binding z-score (relative to random genomic background probes); higher = stronger binding; sequences stand for … in GC…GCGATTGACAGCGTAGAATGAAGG
Please mark label 1 if the recorded PBM binding z-score is equal to or greater than 2, and label 0 if it falls below.

[
  {
    "Sequence input": "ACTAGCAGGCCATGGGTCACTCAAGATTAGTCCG",
    "Class": "label 0"
  },
  {
    "Sequence input": "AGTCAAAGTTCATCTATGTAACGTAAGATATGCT",
    "Class": "label 1"
  },
  {
    "Sequence input": "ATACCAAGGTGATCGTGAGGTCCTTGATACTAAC",
    "Class": "label 0"
  },
  {
    "Sequence input": "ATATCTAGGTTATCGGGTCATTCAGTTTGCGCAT",
    "Class": "label 1"
  },
  {
    "Sequence input": "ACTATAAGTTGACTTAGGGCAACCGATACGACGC",
    "Class": "label 0"
  },
  {
    "Sequence input": "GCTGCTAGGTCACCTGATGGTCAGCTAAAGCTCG",
    "Class": "label 1"
  }
]

* * *

# PBM binding z-score per record follows
# Tested on: PPARg:RXRa 90nM:30nM, anti-RXR (NR concentration 90 nM, RXRa partner concentration 30 nM)
# Assay method text: PBM binding z-score (relative to random genomic background probes); higher = stronger binding; sequences stand for … in GC…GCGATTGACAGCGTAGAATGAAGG

[
  {
    "Sequence input": "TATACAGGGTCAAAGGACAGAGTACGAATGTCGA",
    "PBM binding z-score": 5.84
  },
  {
    "Sequence input": "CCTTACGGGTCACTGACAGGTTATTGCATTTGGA",
    "PBM binding z-score": 2.91
  },
  {
    "Sequence input": "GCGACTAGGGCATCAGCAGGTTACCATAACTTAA",
    "PBM binding z-score": 0.611
  },
  {
    "Sequence input": "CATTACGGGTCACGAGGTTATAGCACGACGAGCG",
    "PBM binding z-score": 6.59
  },
  {
    "Sequence input": "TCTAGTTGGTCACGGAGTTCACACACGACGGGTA",
    "PBM binding z-score": 2.99
  },
  {
    "Sequence input": "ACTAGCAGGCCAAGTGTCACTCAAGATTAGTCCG",
    "PBM binding z-score": 2.95
  },
  {
    "Sequence input": "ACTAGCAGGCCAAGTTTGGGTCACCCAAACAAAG",
    "PBM binding z-score": -0.0867
  },
  {
    "Sequence input": "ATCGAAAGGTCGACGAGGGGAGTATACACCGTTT",
    "PBM binding z-score": 1.67
  },
  {
    "Sequence input": "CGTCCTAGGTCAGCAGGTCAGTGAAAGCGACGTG",
    "PBM binding z-score": 1.87
  },
  {
    "Sequence input": "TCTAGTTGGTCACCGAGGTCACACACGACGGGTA",
    "PBM binding z-score": 3.89
  },
  {
    "Sequence input": "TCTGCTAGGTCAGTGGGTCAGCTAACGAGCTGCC",
    "PBM binding z-score": 3.51
  },
  {
    "Sequence input": "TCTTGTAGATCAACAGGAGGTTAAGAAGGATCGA",
    "PBM binding z-score": 1.73
  },
  {
    "Sequence input": "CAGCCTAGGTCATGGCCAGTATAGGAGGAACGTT",
    "PBM binding z-score": 1.71
  },
  {
    "Sequence input": "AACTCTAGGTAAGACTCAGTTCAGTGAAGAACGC",
    "PBM binding z-score": -0.258
  },
  {
    "Sequence input": "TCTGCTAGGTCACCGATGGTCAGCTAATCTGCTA",
    "PBM binding z-score": 3.11
  },
  {
    "Sequence input": "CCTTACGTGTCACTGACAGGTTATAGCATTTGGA",
    "PBM binding z-score": 0.704
  },
  {
    "Sequence input": "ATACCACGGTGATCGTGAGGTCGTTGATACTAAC",
    "PBM binding z-score": 0.19
  },
  {
    "Sequence input": "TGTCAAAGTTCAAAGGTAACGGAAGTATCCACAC",
    "PBM binding z-score": 7.21
  },
  {
    "Sequence input": "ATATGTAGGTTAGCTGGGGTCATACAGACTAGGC",
    "PBM binding z-score": 4.94
  },
  {
    "Sequence input": "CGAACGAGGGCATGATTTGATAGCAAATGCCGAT",
    "PBM binding z-score": 0.0789
  },
  {
    "Sequence input": "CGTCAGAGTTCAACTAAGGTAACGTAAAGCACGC",
    "PBM binding z-score": 2.53
  },
  {
    "Sequence input": "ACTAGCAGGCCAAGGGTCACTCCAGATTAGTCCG",
    "PBM binding z-score": 7.48
  },
  {
    "Sequence input": "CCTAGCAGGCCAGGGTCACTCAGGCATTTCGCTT",
    "PBM binding z-score": 0.308
  }
]
